For each record, write down the corresponding cytotoxicity at 70.5 h.
Experiment: Human HepG2 cell viability assay in 384 well format
Assay type: toxicity, cell-based
Design: dose 125 nL, time 70.5 hour; concentration not given beside the values
Details: HepG2 cells, read-out: Inhibition
Write it as a number; the unit % goes unstated.

Lab note: measured cytotoxicity at 70.5 h of `CCN(CC)C(=O)Nc1ccc(N2CCSCC2)cc1C` was 8.14

Lab note: measured cytotoxicity at 70.5 h of `Cc1ncsc1C(=O)NC1CCN(CC(N)=O)CC1` was -6.12

Lab note: measured cytotoxicity at 70.5 h of CCc1noc(C(C)N2CCC(N3CCCC3)CC2)n1 (centres undefined) was 24.3

Lab note: measured cytotoxicity at 70.5 h of CCC(O)CN1CCN(C(=O)c2ccc3c(c2)COC3)CC1 (centres undefined) was 14.3

Lab note: measured cytotoxicity at 70.5 h of `CC(C)=CCN1C(=O)[C@H]2CC[C@@H]1CN(c1ncccn1)C2` was -21

Lab note: measured cytotoxicity at 70.5 h of `O=C1CCN(Cc2cnc3c(-c4ccccc4)cnn3c2)CCN1` was -9.5

Lab note: measured cytotoxicity at 70.5 h of `Cc1nsc(NC(=O)N2CCC(C(C)(C)O)CC2)n1` was -5.05

Lab note: measured cytotoxicity at 70.5 h of Cc1noc(C)c1C(=O)N1CCCC1c1c(C)nn(C)c1C (centres undefined) was -8.88

Lab note: measured cytotoxicity at 70.5 h of Cc1noc(CCCC(=O)NC(C)c2cn(-c3ccccc3)nn2)n1 (centres undefined) was -3

Lab note: measured cytotoxicity at 70.5 h of `Cn1cc(N2C(=O)CC[C@@H]3[C@H]2CCN3Cc2ccncc2)cn1` was 6.03

Lab note: measured cytotoxicity at 70.5 h of O=S(=O)(CC1CC1)c1ncc(CN2CCSCC2)n1CC1CCCO1 (centres undefined) was -6.13

Lab note: measured cytotoxicity at 70.5 h of `CNC(=O)[C@@H](c1ccccc1OC)N1CCC[C@H]1C(=O)NC(C)(C)C` was -8.72

Lab note: measured cytotoxicity at 70.5 h of COc1cccc2c1OCC(CNC(=O)CCn1cnnn1)C2 (centres undefined) was -1.24

Lab note: measured cytotoxicity at 70.5 h of O=C(c1cccnc1)N1CCCC(c2ncncc2-c2ccncc2)C1 (centres undefined) was -5.25

Lab note: measured cytotoxicity at 70.5 h of `CCc1cnc(N2C[C@H](OCc3csc(C)n3)[C@H]3COC[C@H]32)nc1` was 2.07

Lab note: measured cytotoxicity at 70.5 h of Cc1nccn1CC1CCCN(C(=O)Cc2ccsc2)C1 (centres undefined) was -17.7

Lab note: measured cytotoxicity at 70.5 h of `O=C(C[C@@H]1COC[C@H]2CN(Cc3ccsc3)C[C@@H]12)N1CCCC1` was -3.89

Lab note: measured cytotoxicity at 70.5 h of CCOC(=O)N1CCC2(CCCN(C3CCOCC3)C2=O)C1 (centres undefined) was -8.17

Lab note: measured cytotoxicity at 70.5 h of `Cc1nn2c(NCC(N)=O)cc(-c3ccccc3)nc2c1C` was 15.2

Lab note: measured cytotoxicity at 70.5 h of COCCN1CCC2(CCCN(C(=O)c3ccoc3C)C2)C1=O (centres undefined) was -1.73

Lab note: measured cytotoxicity at 70.5 h of `CCOCCCNC(=O)CN(c1cc(C)cc(C)c1)S(C)(=O)=O` was -14.2

Lab note: measured cytotoxicity at 70.5 h of CCC(C)NC(=O)Nc1cccc(OC)c1 (centres undefined) was -5.26

Lab note: measured cytotoxicity at 70.5 h of Cc1cc(C)n(CC2CCCN2C(=O)Cc2c(C)nc(C)[nH]c2=O)n1 (centres undefined) was -13.8

Lab note: measured cytotoxicity at 70.5 h of `O=C1CCCN1Cc1noc(-c2ccc(Cl)cc2)n1` was -6.78
